target: T1, cMetECDHis (human, UniProt P08581 25-932, limits assumed, biotinylated in the cross-block ELISA of Example 17); experiment: cross-block ELISA; competitor 024
T1 construct: Expressed in HEK-293F cells; also called soluble cMetECDHis; biotinylated cMetECDHis
Would you mind telling me the reported residual binding, % of no competitor of each entry?
Express it in %; write the number only.

residual binding, % of no competitor for IgG1-1016-022 (antibody, V domains shown, also called TH1016-022; PC1016-022) VH: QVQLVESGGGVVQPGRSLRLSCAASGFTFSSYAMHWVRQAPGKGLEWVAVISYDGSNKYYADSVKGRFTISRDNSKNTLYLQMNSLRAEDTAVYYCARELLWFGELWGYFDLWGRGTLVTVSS VL: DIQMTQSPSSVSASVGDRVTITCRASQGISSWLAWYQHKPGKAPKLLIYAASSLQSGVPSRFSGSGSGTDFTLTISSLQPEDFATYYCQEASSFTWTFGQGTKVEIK is 99.4

residual binding, % of no competitor for anti-c-Met HuMab 005 (IgG1) (antibody, V domains shown, also called TH1016-005; PC1016-005) VH: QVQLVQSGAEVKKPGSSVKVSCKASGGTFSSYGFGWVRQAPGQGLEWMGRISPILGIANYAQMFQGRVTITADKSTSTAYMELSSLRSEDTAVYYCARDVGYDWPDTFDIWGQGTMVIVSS VL: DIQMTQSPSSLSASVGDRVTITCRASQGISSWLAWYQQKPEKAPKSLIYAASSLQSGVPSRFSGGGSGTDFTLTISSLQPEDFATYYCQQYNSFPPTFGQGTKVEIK is 114

residual binding, % of no competitor for anti-c-Met HuMab 098 (IgG1) (antibody, V domains shown, also called TH1016-098; PC1016-098) VH: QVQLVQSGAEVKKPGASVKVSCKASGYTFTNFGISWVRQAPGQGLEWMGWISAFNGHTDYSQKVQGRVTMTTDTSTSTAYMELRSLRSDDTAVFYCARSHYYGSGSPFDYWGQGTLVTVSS VL: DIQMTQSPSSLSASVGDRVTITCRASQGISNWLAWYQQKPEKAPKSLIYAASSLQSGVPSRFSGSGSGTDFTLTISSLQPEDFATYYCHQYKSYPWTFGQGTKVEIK is 12.9

residual binding, % of no competitor for anti-c-Met HuMab 006 (IgG1) (antibody, V domains shown, also called TH1016-006; PC1016-006) VH: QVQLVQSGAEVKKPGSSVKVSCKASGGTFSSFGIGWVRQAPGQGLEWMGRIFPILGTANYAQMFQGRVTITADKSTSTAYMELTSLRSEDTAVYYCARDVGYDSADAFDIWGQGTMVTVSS VL: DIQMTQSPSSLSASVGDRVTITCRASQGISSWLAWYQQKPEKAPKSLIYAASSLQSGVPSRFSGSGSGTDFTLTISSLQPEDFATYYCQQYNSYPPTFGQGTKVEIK is 113
